Assay: soluble on expression in E. coli; label from the status in PepcDB or PDB records
experimental.readout: soluble on expression in E. coli

Please review the entries below; each comes with its answer.
- seq: "MGSDKIHHHHHHMVYVGTSGFSFEDWKGVVYPEHLKPSQFLKYYWAVLGFRIVELNFTYYTQPSWRSFVQMLRKTPPDFYFTVKTPGSVTHVLWKEGKDPKEDMENFTRQIEPLIEEQRLKMTLAQFPFSFKFSRKNVEYLEKLRESYPYELAVEFRHYSWDREETYEFLRNHGITFVVVDEPKLPGLFPYRPITTTDYAYFRFHGRNERWFEAEGEERYDYLYSEEELKTLFEDVVELSRRVKETYVFFNNCYKGQAAINALQFKKMLEERV"
  soluble on expression in E. coli: "soluble"
- seq: "MIIKRNDMAPSVKAGDAILFYRLSQTYKVEEAVVYEDSKTSITKVGRIIAQAGDEVDLTEQGELKINGHIQNEGLTFIKSREANYPYRIADNSYLILNDYYSQESENYLQDAIAKDAIKGTINTLIRLRNH"
  soluble on expression in E. coli: "not soluble"
- seq: "MILLPSIRLPETAMNTDSPINRVEQVQVDDLACWRIHTAHGEALIAQQGAQLLSYQPHEQPPLVWLSDEAGYRRGQSVRGGVPVCWPWFGPLERNPQEVRGQVEDGLKAPAHGLVRAVDWKIDDIAEEDGDLCVSFRLDAPDGLPGWPHPAALRMLFRFGERLTLRLTSENLGSKPLVLSQALHTYFAVSDSREIAIEGLEGARYIETLENWEERTQHGAVRVKGELDRIYLGLERDLLIKDPRWERSIHLHALDSRSAVVWNPWVDKSRRLSQFADDAWQQMLCIETGRVWDDLMVVAPGRSESFGVQIWSEPLKRP"
  soluble on expression in E. coli: "soluble"
- seq: "MGSDKIHHHHHHMVTLEPENKVRKILITDCADAKGLIAKITGVCFAHQLNIIKNTEFVDRIQGRFFMRTVLEGVFDDASLLKALSEVLPAQNHTKLVAADKKRIVVMVTKEAHCLGDLLMKAYYGGLDVDIAAVVGNYDSLRNLTEKFDIPFHHVCHQGLDRLEHEQAILKIVNGYQPDYVVLAKYMRVLTPEFVCAYPDRIINIHHSFLPAFIGASPYKQAWERGVKIIGATAHFVNDCLDEGPIIKQDVISVDHTFSAEEMAHNGRDVEKSVLSKALQLVLNEQVIVYGNKTVVF"
  soluble on expression in E. coli: "not soluble"
- seq: "MKRTPLFEKHVELGAKMVDFAGWEMPLYYTSIFEEVMAVRKSVGMFDVSHMGEFLVKGPEAVSFIDFLITNDFSSLPDGKAIYSVMCNENGGIIDDLVVYKVSPDEALMVVNAANIEKDFNWIKSHSKNFDVEVSNISDTTALIAFQGPKAQETLQELVEDGLEEIAYYSFRKSIVAGVETLVSRTGYTGEDGFELMLEAKNAPKVWDALMNLLRKIDGRPAGLGARDVCRLEATYLLYGQDMDENTNPFEVGLSWVVKLNKDFVGKEALLKAKEKVERKLVALELSGKRIARKGYEVLKNGERVGEITSGNFSPTLGKSIALALVSKSVKIGDQLGVVFPGGKLVEALVVKKPFYRGSVRREV"
  soluble on expression in E. coli: "soluble"
- seq: "GPGSMAFHPRDAFILHQEQIQRYNEGDEVDTSAEQKVQIELQRLTDSESTVTIAFSHEDHTLGNPLRHVLMQNREVTSAGYAIPHPLEAKMLLHVQSTDYAVEAVAEGLERLASICDETLQSFEDCMHRMRCEGAKQE"
  soluble on expression in E. coli: "not soluble"

Please turn your attention to the following entry.
I would be grateful if you could share the reported soluble on expression in E. coli for `AIARTDSSKMTDVESGVANFASSARAGRRNALPDIQSSAATDGTSDLPLKLEALSVKEDAKEKDEKTTQDQLEKPQNEEK` .
soluble

---

Test: soluble on expression in E. coli; label from the status in PepcDB or PDB records
experimental.readout: soluble on expression in E. coli

Please review the entries below; each comes with its answer.
- seq: "NDNRPVFKEGQVEVHIPENAPVGTSVIQLHATDADIGSNAEIRYIFGAQVAPATKRLFALNNTTGLITVQRSLDREETAIHKVTVLASDGSSTPARATVTINVTDVN"
  soluble on expression in E. coli: "soluble"
- seq: "MSLRDLPGQTGVQFTTGGVNHFLSWKSGGERHYFTSLAFTHTNRNRTCWLYGLDYQIKEYTYENKAIPKAQFTGELGYFIPVLSDKGRNVCFRIGLSVLGGFETVNWGTSLLPDGAAVTNGDCFIYGGGLTAAFDVWLTDRIILLMQVKERAFFGTDAGNFHTQIGLGVRLIINEGHHHHHH"
  soluble on expression in E. coli: "not soluble"
- seq: "MGSDKIHHHHHHMKPALKSTPALRITLVCNTAWAIYTYRQGLIRMLVGRGVDVTVLAPRDRTFELLVAMGCRCIELPVASKGTSPRDDLRTLYALYRQYRSIRPHVVFHYTIKPNIYGSIAARLAGVQSVAVTTGLGYVFIQQSRAAQVAKKLYRFAFRFPREIWFLNRDDQAAFVEQNLLVHPERARLLHGEGVDLEQFAFTPLPERADYRFVLIGRLLWDKGVGEYVEAARRLRERYPHARFQLLGPVGVDNPSAITREEVAAWEREGIIEYLGEAHDVRPFIAEADCVVLPSYREGVPRTLMEASAMGRPIVTTDVPGCREVVADGVNGLLCEARNAASLAATLARMLDMSGAERRALAERGRKKVAEEFDERVVVEMYKDLVQKMTGVLL"
  soluble on expression in E. coli: "not soluble"
- seq: "MALKAQNTISGKEGRLFLDGEEMAHIKTFEANVEKNKSEVNIMGRRMTGHKTTGANGTGTATFYKVTSQFVLIMMDYVKKGSDPYFTLQAVLDDASSGRGTERVTLYDVNFDSPKIAGLDVDSEALEEEVPFTFEDFDVPEQLKSTFLEHHHHHH"
  soluble on expression in E. coli: "soluble"
- seq: "MSLEVKLNENERIDDLQCKGLKIIQKKAGFCFGLDAVLLANFADIKKGDTVIDLGTGTGIIAILIAGKTEAKSIIGLEIQEEMAEMAQRSVKLNNLEDRVKIVCGDIKNSVEMFGASKFDVVVTNPPYMNQGGGLLNISDTKAISRHEIKCTLEDVIKASSKLLVPGGQFAMVHRPDRLVDIIWLMRKYSIEPKYLQFVHPYPRKKANLILIKGARQGRVQLKMLEPLYVYDENGNYSKEIDNIYGREVRNEGHHHHHH"
  soluble on expression in E. coli: "soluble"

List soluble on expression in E. coli for every entry below, keeping the order given.
1. MCVGVPMTVVTSDNGTALCERRGEQRRVSTLLIGEVAVGDRVLVFIDNAMRLLEPDEARLIDDALDGLAAAMQGRDFEHLFADLIDREPQLPAFLRNDVVPPHG
2. MERCGWVSQDPLYIAYHDNEWGVPETDSKKLFEMICLEGQQAGLSWITVLKKRENYRACFHQFDPVKVAAMQEEDVERLVQDAGIIRHRGKIQAIIGNARAYLQMEQNGEPFVDFVWSFVNHQPQVTQATTLSEIPTSTSASDALSKALKKRGFKFVGTTICYSFMQACGLVNDHVVGCCCYPGNKPLEHHHHHH

["not soluble", "soluble"]

I would be grateful if you could share the reported soluble on expression in E. coli for `AKWPHLKVGGAILVAPAEPRHSDRTESFGPIFEESLGVPAYVVSSRNDPWMSFTQAERLARAWRADVVDLGFAGHINVDSGFGPWPGGVVLRDELARRPVP` .
not soluble

---

Assay: soluble on expression in E. coli; label from the status in PepcDB or PDB records

- seq: "MIKLENEVLLVEMKTAGAELTRIFHKDTGLEYLWNADSKFWGRHSPVLFPTVGRLVEDTYLVDGKPYHLGQHGFARDRDFQVVEQTEKSVRFELDADEDSLAVYPYKFKLSIIYTIEKNTVAVSYEVENTDNKRIYFSIGAHPAFNLPLTDGTTFEDYYLDFGTEENLETLCLEGPYRSGEIKKVVDEAARYLPLNYDLFKNDALIFEALKQKEMTIKSDKTPHFVKVSFPEFPFVGVWTAKAGTPFLCIEPWYGIADGAGESVELRDKAGIEHLEPEAVFASEYEITVGLEHHHHHH"
  soluble on expression in E. coli: "soluble"
- seq: "MSSTKIDTTKPLSILLLGVDTGADGRIDKGNSDTIMVVTINPQTKKTLITSIPRDSLAEMVGDQDTNVQKLNAAYNIGGSKMAKASVSKLFNVPIDYYATINMGGLKQIVDAVGGVTITSPLNVSFDHITVTKGKHHLNGKQALSYTRMRYQDPRGDYGRQLRQQQVMRAVLAKLAETKTYSRYNQLLTSLKGNLQTDLSFNDLVGLATHDRANMKHIQSTQVIGSPAWINTSSYQILSTKTLQQTSDRLRTQLGLSTETLTNMETKLNAKNTVYDGKTNLNYDTQGLDKITYSDNTKLEHHHHHH"
  soluble on expression in E. coli: "soluble"
